B1: OR4K15 (parent)
chain: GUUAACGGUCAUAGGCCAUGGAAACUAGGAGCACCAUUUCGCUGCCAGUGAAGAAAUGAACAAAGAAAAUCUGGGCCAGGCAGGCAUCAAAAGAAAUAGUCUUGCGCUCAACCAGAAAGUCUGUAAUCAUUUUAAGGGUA

variants of: B1; assay: self-cleavage, relative activity (ratio to wild type); higher = more cleavage; in vitro, sequencing; the parent is a self-cleaving ribozyme
Recorded Endpoint: self-cleavage
Answers are plain numbers.

Past entries and their recorded results:
Request: For the variant U37C G41U , report self-cleavage.
Response: 1.04

Request: For the variant A56G A78C , report self-cleavage.
Response: 0.22

Request: For the variant U102C A135C , report self-cleavage.
Response: 1.02

Request: For the variant A27G A116G , report self-cleavage.
Response: 0.99

Request: For the variant A33G A78G , report self-cleavage.
Response: 0.19

For every listed record, write down its self-cleavage.
1. A67C U87C
2. A82G A86U
3. A54G A90G
4. U120G U139A
5. U26C A140G

Response:
[1.79, 0.88, 0.86, 1.61, 1.4]
